assay: Study KAR5585-101 Part 1 (SAD): plasma pharmacokinetics after a single oral dose of KAR5585, fasting and fed (incl. dose proportionality and food effect); settings: human, plasma, po, 2000 mg, C12, KAR5417 after 2000 mg KAR5585 single oral, fasted, Cohort 6; Geo. Mean
reported-metric: concentration at 12 h (ng/mL)
Answers are plain numbers, in ng/mL.

Exercise: Which concentration at 12 h value belongs to Nc1nc(O[C@H](c2ccc(Cl)cc2-c2ccccc2)C(F)(F)F)cc(N2CCC3(CC2)CN[C@H](C(=O)O)C3)n1 ?
Key: 280

---

experiment: Study KAR5585-101 Part 1 (SAD): plasma pharmacokinetics after a single oral dose of KAR5585, fasting and fed (incl. dose proportionality and food effect); conditions: human, plasma, po, 1200 mg, Vz/F, 1200 mg KAR5585 single oral, fasted, Cohort 5; Mean
reported-metric: Vd/F
# output: number + unit

Exercise: For CCOC(=O)[C@@H]1CC2(CCN(c3cc(O[C@H](c4ccc(Cl)cc4-c4ccccc4)C(F)(F)F)nc(N)n3)CC2)CN1 [KAR5585] , what is its reported Vd/F?
Key: 16900 L

Values were extracted from patent US20240041877A1.
